Subject of test: Recombinant human factor B (Homo sapiens (Human))
Sequence (P00751 26-764): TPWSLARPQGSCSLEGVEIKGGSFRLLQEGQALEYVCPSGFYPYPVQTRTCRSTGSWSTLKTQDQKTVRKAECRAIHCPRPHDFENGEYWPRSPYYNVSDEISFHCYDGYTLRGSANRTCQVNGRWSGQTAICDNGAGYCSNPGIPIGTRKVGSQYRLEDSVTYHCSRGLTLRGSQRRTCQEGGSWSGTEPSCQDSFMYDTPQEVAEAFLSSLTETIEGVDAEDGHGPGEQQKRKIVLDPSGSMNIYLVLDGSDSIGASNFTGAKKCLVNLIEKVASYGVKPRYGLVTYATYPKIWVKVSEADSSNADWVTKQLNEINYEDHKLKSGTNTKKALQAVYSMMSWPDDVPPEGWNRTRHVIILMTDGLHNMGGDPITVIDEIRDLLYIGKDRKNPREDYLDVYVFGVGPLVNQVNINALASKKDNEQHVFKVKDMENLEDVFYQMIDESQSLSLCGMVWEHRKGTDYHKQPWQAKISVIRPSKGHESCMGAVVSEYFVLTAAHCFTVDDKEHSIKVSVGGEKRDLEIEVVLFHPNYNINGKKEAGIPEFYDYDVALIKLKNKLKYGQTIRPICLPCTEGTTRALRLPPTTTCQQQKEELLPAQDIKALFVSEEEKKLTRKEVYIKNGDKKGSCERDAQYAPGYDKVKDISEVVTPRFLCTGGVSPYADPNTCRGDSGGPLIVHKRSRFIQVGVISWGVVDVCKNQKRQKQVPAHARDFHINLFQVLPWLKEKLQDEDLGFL
Protocol: Human Complement Factor B TR-FRET Assay
Experimental parameters: assay of Biological Example 2; read-out: hFactor-B TR-FRET Qualified IC50
Test readout: IC50

INSERT INTO assay_data (compound, measured) VALUES
  ('Cc1cc(C)c2[nH]ccc2c1C[C@@H]1CN(C)C[C@H]1c1ccc(C(N)=O)cc1 (racemic) [Ex-58]', '< 30000 nM'),
  ('Cc1cc(C)c2[nH]ccc2c1C[C@@H]1CCN(C)C[C@H]1c1ccc(-c2nnn[nH]2)cc1 [Ex-42]', '< 100 nM'),
  ('Cc1cc(C2CC2)c(C[C@@H]2CCN(CC(F)(F)F)C[C@H]2c2ccc(C(=O)O)cc2)c2cc[nH]c12 [Ex-3]', '< 100 nM'),
  ('Cc1cc(C)c2[nH]ccc2c1C[C@@H]1CCN([C@H]2C[C@H](F)C2)C[C@H]1c1ccc(C(=O)O)cc1 [Ex-22]', '< 100 nM'),
  ('Cc1cc(C)c2[nH]cc(Cl)c2c1C[C@@H]1CCN(C)C[C@H]1c1ccc(C(=O)O)cc1 [Ex-39]', '< 100 nM'),
  ('Cc1cc(C)c2[nH]ccc2c1C[C@@H]1CCN(CCF)C[C@H]1c1ccc(C(=O)O)cc1 [Ex-12]', '< 100 nM'),
  ('CCCN1CC[C@@H](Cc2c(C)cc(C)c3[nH]ccc23)[C@H](c2ccc(C(=O)O)cc2)C1 [Ex-20]', '< 100 nM'),
  ('Cc1cc(F)c(C[C@@H]2CCN(C)C[C@H]2c2ccc(C(=O)O)cc2)c2cc[nH]c12 [Ex-35]', '< 100 nM'),
  ('Cc1cc(C)c2[nH]ccc2c1C[C@@H]1CCCN(C)C[C@H]1c1ccc(C(=O)O)cc1 [Ex-27]', '< 100 nM'),
  ('Cc1cc(C)c2[nH]ccc2c1C[C@@H]1CN(CC(F)(F)F)C[C@H]1c1ccc(C(=O)O)cc1 (racemic) [Ex-26]', '< 30000 nM');

Task item: Item Cc1cc(C)c2[nH]ccc2c1C[C@@H]1CCN(CC(C)(C)O)C[C@H]1c1ccc(C(=O)O)cc1 [Ex-15] has what recorded IC50?
Reply: < 1000 nM

Task item: Form field: reported IC50 of Cc1cc(C2CC2)c(C[C@H]2CCN(CC(F)(F)F)C[C@@H]2c2ccc(C(=O)O)cc2)c2cc[nH]c12 [Ex-4]
Reply: < 30000 nM

Task item: IC50 for Cc1cc(C)c2[nH]ccc2c1C[C@@H]1CCN(CCC(F)F)CC[C@H]1c1ccc(C(=O)O)cc1 [Ex-32] ?
Reply: < 1000 nM

* * *

Subject of test: Recombinant human factor B (Homo sapiens (Human))
Protocol: Human Complement Factor B TR-FRET Assay
Experimental parameters: assay of Biological Example 2; read-out: hFactor-B TR-FRET Qualified IC50
Test readout: IC50

Task item: I'd like to know its IC50. The compound in question is Cc1cc(Cl)c2[nH]ccc2c1C[C@@H]1CCN(C)C[C@H]1c1ccc(C(=O)O)cc1
Reply: < 100 nM

Task item: Data request, read-out IC50, for Cc1cc(C)c2[nH]ccc2c1C[C@H]1CCN(CC(F)(F)F)C[C@@H]1c1ccc(C(=O)O)cc1
Reply: < 30000 nM

Task item: Dear colleague, I am looking for the recorded IC50 of the following compound: Cc1cc(C)c2[nH]ccc2c1C[C@@H]1CN(C)C[C@H]1c1ccc(-c2nnn[nH]2)cc1
Reply: < 100 nM

Task item: Which IC50 is reported for this compound? CCN1CCC[C@@H](Cc2c(C)cc(C)c3[nH]ccc23)[C@H](c2ccc(C(=O)O)cc2)C1
Reply: < 100 nM
